- target desc: rat TAAR1 (Rattus norvegicus (Rat))
- Sequence (Q923Y9 whole entry): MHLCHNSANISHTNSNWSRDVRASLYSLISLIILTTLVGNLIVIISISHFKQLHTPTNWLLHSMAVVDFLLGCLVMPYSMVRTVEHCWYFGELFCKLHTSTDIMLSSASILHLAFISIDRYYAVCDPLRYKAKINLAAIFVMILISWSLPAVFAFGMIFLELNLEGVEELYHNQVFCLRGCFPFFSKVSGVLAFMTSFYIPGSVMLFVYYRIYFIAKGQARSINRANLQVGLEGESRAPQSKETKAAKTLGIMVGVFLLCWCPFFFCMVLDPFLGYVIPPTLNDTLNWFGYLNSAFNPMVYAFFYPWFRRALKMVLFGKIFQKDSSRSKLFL
- run description: Radioligand binding assay on rat TAAR1
- condition: rat TAAR1 (second value of the cell), HEK-293 membranes; read-out: Ki (μM) mouse/rat
Overview of reported log10(Ki) across a group of compounds:
measurement name: log10(Ki) (log10 of the value in µM)

- compound: "FC(F)(F)COc1cnc(Nc2ccc([C@@H]3CNCCO3)cc2)nc1 [Example 137]"
  measurement name: "log10(Ki)"
  recorded measurement: -2.59
- compound: "FS(F)(F)(F)(F)c1ccc(Nc2ccc([C@@H]3CNCCO3)cc2)cc1 [Example 191]"
  measurement name: "log10(Ki)"
  recorded measurement: -2.49
- compound: "COCCOc1cnc(Nc2ccc([C@@H]3CNCCO3)cc2F)nc1 [Example 151]"
  measurement name: "log10(Ki)"
  recorded measurement: -1.02
- compound: "CCc1cnc(Nc2ccc([C@@H]3CNCCO3)cc2F)nc1 [Example 116]"
  measurement name: "log10(Ki)"
  recorded measurement: -2.15
- compound: "CCc1cnc(Nc2ccc([C@H]3CNCCO3)cc2)nc1 [Example 15]"
  measurement name: "log10(Ki)"
  recorded measurement: -1.33

---

- target desc: rat TAAR1 (Rattus norvegicus (Rat))
- run description: Radioligand binding assay on rat TAAR1
- condition: rat TAAR1 (second value of the cell), HEK-293 membranes; read-out: Ki (μM) mouse/rat

- compound: "CCOc1cnc(Nc2ccc(C3CNCCO3)cc2F)nc1 (racemic) [Example 100]"
  Ki (µM): 0.0164
- compound: "Clc1cnc(Nc2ccc(C3CNCCO3)cc2)nc1 (racemic) [Example 6]"
  Ki (µM): 0.232
- compound: "Cc1cc(C2CNCCO2)ccc1Nc1ccc(Cl)cn1 (racemic) [Example 80]"
  Ki (µM): 0.0626
- compound: "Brc1ccc(CNc2ccc([C@H]3CNCCO3)cc2)cc1 [Example 45]"
  Ki (µM): 0.126
- compound: "Fc1cc(Nc2ncc(C(F)(F)F)cn2)ccc1[C@@H]1CNCCO1 [Example 196]"
  Ki (µM): 0.004
- compound: "CCCc1cnc(Nc2ccc([C@@H]3CNCCO3)cc2)nc1 [Example 93]"
  Ki (µM): 0.0222
- compound: "FC(F)(F)c1ncc(Nc2ccc([C@@H]3CNCCO3)cc2)cn1 [Example 154]"
  Ki (µM): 0.863
- compound: "c1coc(-c2cnc(Nc3ccc([C@H]4CNCCO4)cc3)nc2)c1 [Example 147]"
  Ki (µM): 0.0197
- compound: "Clc1ccc(CNc2ccc(C3CNCCO3)cc2)cc1 (racemic) [Example 9]"
  Ki (µM): 0.0893
- compound: "c1cc(C2CC2)nc(Nc2ccc([C@@H]3CNCCO3)cc2)n1 [Example 189]"
  Ki (µM): 0.0605
- compound: "FC(F)(F)Oc1ccc(CNc2ccc([C@H]3CNCCO3)cc2)cc1 [Example 25]"
  Ki (µM): 0.0705
- compound: "Fc1ccc(CNc2ccc([C@H]3CNCCO3)cc2)cc1 [Example 31]"
  Ki (µM): 0.222
- compound: "Clc1cc(Nc2ccc([C@@H]3CNCCO3)cc2)ncn1 [Example 199]"
  Ki (µM): 0.056
- compound: "FC(F)(F)c1ccc(Nc2ccc([C@H]3CNCCO3)cc2)nc1 [Example 11]"
  Ki (µM): 0.0233
- compound: "c1ccc(-n2ccc(Nc3ccc([C@H]4CNCCO4)cc3)n2)cc1 [Example 163]"
  Ki (µM): 0.0332
- compound: "Clc1ccc(Nc2ccc([C@@H]3CNCCO3)cc2)cn1 [Example 67]"
  Ki (µM): 0.292
- compound: "Cc1cnc(Nc2ccc([C@H]3CNCCO3)cc2)nc1 [Example 18]"
  Ki (µM): 0.313
- compound: "FC(F)(F)c1cnc(Nc2ccc([C@@H]3CNCCO3)cc2Cl)nc1 [Example 168]"
  Ki (µM): 0.0065
- compound: "COc1ccc(CNc2ccc([C@H]3CNCCO3)cc2)cc1 [Example 20]"
  Ki (µM): 0.764
- compound: "c1ccc(-c2cc(Nc3ccc([C@H]4CNCCO4)cc3)n[nH]2)cc1 [Example 113]"
  Ki (µM): 0.0877
- compound: "Cc1cnc(Nc2ccc([C@H]3CNCCO3)cc2)cc1Br [Example 64]"
  Ki (µM): 0.101
- compound: "FC(F)(F)COc1ccnc(Nc2ccc([C@@H]3CNCCO3)cc2)n1 [Example 172]"
  Ki (µM): 0.0162
- compound: "Fc1cc(Nc2ccc([C@H]3CNCCO3)cc2)cnc1Cl [Example 40]"
  Ki (µM): 0.188
- compound: "c1ccc2nc(Nc3ccc([C@H]4CNCCO4)cc3)ccc2c1 [Example 46]"
  Ki (µM): 0.0643
- compound: "Clc1cc(Nc2ccc([C@H]3CNCCO3)cc2)c(Cl)cn1 [Example 63]"
  Ki (µM): 1.49
- compound: "Clc1ccc2nc(Nc3ccc([C@H]4CNCCO4)cc3)ccc2c1 [Example 47]"
  Ki (µM): 0.0067
- compound: "Cc1ccc(Nc2ccc([C@H]3CNCCO3)cc2)nn1 [Example 160]"
  Ki (µM): 2.75
- compound: "Cc1cc(C2CNCCO2)ccc1Nc1ncc(Br)cn1 (racemic) [Example 89]"
  Ki (µM): 0.177
- compound: "Clc1ccc(Nc2ccc([C@H]3CNCCO3)cc2)nc1 [Example 38]"
  Ki (µM): 0.0544
- compound: "FC(F)(F)c1cnc(Nc2ccc([C@H]3CNCCO3)cc2Cl)nc1 [Example 169]"
  Ki (µM): 0.0397
- compound: "Brc1ccc(Nc2ccc([C@H]3CNCCO3)cc2)nc1 [Example 10]"
  Ki (µM): 0.0337
- compound: "Clc1cnc(Nc2ccc([C@@H]3CNCCO3)c(Cl)c2)nc1 [Example 202]"
  Ki (µM): 0.0065
- compound: "FC(F)(F)c1cnc(Nc2ccc([C@@H]3CNCCO3)cc2)cn1 [Example 201]"
  Ki (µM): 0.0626
- compound: "Clc1ncc(Cl)c(Nc2ccc([C@H]3CNCCO3)cc2)n1 [Example 186]"
  Ki (µM): 1.1
- compound: "CCOc1cnc(Nc2ccc([C@@H]3CCCNC3)cc2)nc1 [Example 114]"
  Ki (µM): 0.996
- compound: "FC(F)(F)COc1ccnc(Nc2ccc([C@@H]3CNCCO3)c(Cl)c2)n1 [Example 211]"
  Ki (µM): 0.0011
- compound: "FC(F)(F)c1cc(Nc2ccc([C@@H]3CNCCO3)cc2)ncn1 [Example 198]"
  Ki (µM): 0.163
- compound: "Clc1ccc(CNc2ccc([C@H]3CNCCO3)cc2)cn1 [Example 32]"
  Ki (µM): 1.24
- compound: "CCCc1cnc(Nc2ccc([C@H]3CNCCO3)cc2F)nc1 [Example 129]"
  Ki (µM): 0.0068

Every entry's value here was drawn from patent US8802673B2.
